Item-by-item account of Fold Increase
- experimental_system: T1, human TrkA receptor on the cell surface (human, UniProt P04629 33-796)
- T1 construct: whole, on cells; PC12-hTrkA: high density; also called hTrkA; huTrkA
- T1 sequence (P04629 33-796): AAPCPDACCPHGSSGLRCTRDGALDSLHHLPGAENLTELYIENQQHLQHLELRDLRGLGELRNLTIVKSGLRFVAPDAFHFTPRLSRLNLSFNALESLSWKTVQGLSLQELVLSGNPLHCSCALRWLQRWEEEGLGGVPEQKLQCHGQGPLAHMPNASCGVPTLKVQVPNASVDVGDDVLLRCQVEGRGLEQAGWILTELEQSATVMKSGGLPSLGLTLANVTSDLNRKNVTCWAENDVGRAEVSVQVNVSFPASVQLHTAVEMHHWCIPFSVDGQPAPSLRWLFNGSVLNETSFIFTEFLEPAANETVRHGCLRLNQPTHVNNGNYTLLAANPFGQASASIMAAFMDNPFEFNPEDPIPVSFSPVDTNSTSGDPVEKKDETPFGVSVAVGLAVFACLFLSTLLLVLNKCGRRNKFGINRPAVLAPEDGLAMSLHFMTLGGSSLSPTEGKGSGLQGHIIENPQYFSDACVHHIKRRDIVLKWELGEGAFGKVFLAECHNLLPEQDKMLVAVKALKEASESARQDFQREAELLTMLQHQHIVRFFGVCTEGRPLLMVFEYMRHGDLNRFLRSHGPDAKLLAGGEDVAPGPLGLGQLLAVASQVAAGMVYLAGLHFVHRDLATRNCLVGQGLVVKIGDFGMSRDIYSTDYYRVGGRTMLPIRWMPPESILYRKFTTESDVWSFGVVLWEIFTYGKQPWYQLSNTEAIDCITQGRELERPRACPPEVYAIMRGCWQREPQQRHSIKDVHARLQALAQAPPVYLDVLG
- measurement_description: flow cytometry on TF-1 cells, 4 µg/ml
The response must be a number in fold with no trailing unit.

Sample records with Fold Increase:
BXhVH1VL8 (antibody, human IgG1, V domains shown, Human IgG1 constant regions (IgG1 expression vectors); COS-7 supernatant; also called hVH1/hVL8) VH: EVKLLESGGGLVQPGGSLRLSCAASGFTFSTYTMSWVRQTPGKGLEWVAYISKGGGSTYYPDTVKGRFTISRDNSKNTLYLQMNSLRAEDTAVYYCAKGAMYGNDFFYPMDYWGQGTTVTVSS VL: QIVLTQSPATLSLSPGEEATLSCSASSSVSYMHWYQQKSGTSPRLLIYTTSNLASGIPSRFSGSGSGTFYTLTISSLEPEDAADYYCHQWSSYPWTFGGGTKLEIK = 1.5
BXhVH3VL1 (antibody, human IgG1, V domains shown, Human IgG1 constant regions (IgG1 expression vectors); COS-7 supernatant; also called hVH3/hVL1) VH: EVQLLESGGGLVQPGGSLRLSCAASGFTFSTYTMSWVRQAPGKRLEWVAYISKGGGSTYYPDTVKGRFTISRDNSKNTLYLQMNSLRAEDTAVYYCARGAMYGNDFFYPMDYWGQGTTVTVSS VL: EIVLTQSPATLSLSPGERATLSCSASSSVSYMHWYQQKPGQAPRLLIYTTSNLASGIPARFSGSGSGTDFTLTISSLEPEDFAVYYCHQWSSYPWTFGQGTKLEIK = 2.5

Proceeding to the next binder to report its Fold Increase.
Ask: Could you please provide reported Fold Increase for BXhVH1VL1 (antibody, human IgG1, V domains shown, Human IgG1 constant regions (IgG1 expression vectors); COS-7 supernatant; also called hVH1/hVL1) VH: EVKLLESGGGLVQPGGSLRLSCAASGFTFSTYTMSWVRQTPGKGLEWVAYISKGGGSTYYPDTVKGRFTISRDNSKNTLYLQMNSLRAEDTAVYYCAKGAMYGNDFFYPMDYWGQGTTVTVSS VL: EIVLTQSPATLSLSPGERATLSCSASSSVSYMHWYQQKPGQAPRLLIYTTSNLASGIPARFSGSGSGTDFTLTISSLEPEDFAVYYCHQWSSYPWTFGQGTKLEIK ? Thanks!
Reply: 1.7

src = patent US20110145941A1
